AUC(0-t) overview
# Protocol summary: AUClast in mouse plasma at 5 mg/kg,iv administration
# Assay type: ADME, organism-based
Measured attribute: AUC(0-t) (ng·h/mL)

Molecule	Numeric value
Cc1ccc(C[C@@H](C(=O)N2CC(C#N)C2)n2c(=N)n(C(C)c3ccc(C)cc3)c3ccccc32)cc1 (mixture of isomers)	295
COC[C@H](Cc1ccc(C)cc1)n1c(=N)n(C(c2ccc(C)cc2)C2CC2)c2ccccc21 (stereo in doubt; 61b)	986
COCOC[C@H](Cc1ccc(C)cc1)n1c(=N)n(C(C)c2ccc(C)cc2)c2cccnc21 (stereo in doubt; 62c)	673
Cc1ccc(C[C@@H](C(=O)N2CC(C#N)C2)n2c(=N)n(C(C)c3ccc(C)cc3)c3cccnc32)cc1 (stereo not given in full)	518
Cc1ccc(C[C@@H](CNC(=O)CO)n2c(=N)n(C(C)c3ccc(C)cc3)c3ccccc32)cc1 (stereo in doubt; 65c)	691

====

# Protocol summary: AUClast in mouse brain at 5 mg/kg,iv administration
# Assay type: ADME, organism-based
# Measurement conditions: in vivo
AUClast overview

Compound	AUClast (ng·min/g)
Cc1ccc(C[C@@H](CNC(=O)CO)n2c(=N)n(C(C)c3ccc(C)cc3)c3ccccc32)cc1 (stereo in doubt; 65c)	11291
Cc1ccc(C[C@@H](C(=O)N2CC(C#N)C2)n2c(=N)n(C(C)c3ccc(C)cc3)c3cccnc32)cc1 (stereo not given in full)	12554
COC[C@H](Cc1ccc(C)cc1)n1c(=N)n(C(c2ccc(C)cc2)C2CC2)c2ccccc21 (stereo in doubt; 61b)	38969
Cc1ccc(C[C@@H](C(=O)N2CC(C#N)C2)n2c(=N)n(C(C)c3ccc(C)cc3)c3ccccc32)cc1 (mixture of isomers)	8586
COCOC[C@H](Cc1ccc(C)cc1)n1c(=N)n(C(C)c2ccc(C)cc2)c2cccnc21 (stereo in doubt; 62c)	100501

====

EC50 overview
# Assay target: Orexin receptor type 2 (Homo sapiens)
# Protocol summary: Agonist activity at human OX2R expressed in human HEK293 cells co-transfected with human Galphaq assessed as accumulation of inositol phosphate by scintillation counter analysis
Measured attribute: EC50 (µM)

Molecule	Assay target	Measured attribute	Value relation sign	Numeric value
Cc1ccc(C[C@@H](CS(C)(=O)=O)n2c(=N)n(Cc3ccc(C)cc3)c3ccccc32)cc1	Orexin receptor type 2 (Homo sapiens)	EC50	=	4.47
Cc1ccc(CC(CNC=O)n2c(=N)n(Cc3ccc(C)cc3)c3ccccc32)cc1 (racemic)	Orexin receptor type 2 (Homo sapiens)	EC50	=	2.45
Cc1ccc(C[C@@H](CNC(=O)CO)n2c(=N)n(C(C)c3ccc(C)cc3)c3cccnc32)cc1 (stereo in doubt; 68b)	Orexin receptor type 2 (Homo sapiens)	EC50	>	10
Cc1ccc(CC(CNC(=O)C2CC2)n2c(=N)n(Cc3ccc(C)cc3)c3ccccc32)cc1 (racemic)	Orexin receptor type 2 (Homo sapiens)	EC50	=	5.25
Cc1ccc(CC(CNC(=O)Cc2cccnc2)n2c(=N)n(Cc3ccc(C)cc3)c3ccccc32)cc1 (racemic)	Orexin receptor type 2 (Homo sapiens)	EC50	=	4.68
COCCCOC[C@H](Cc1ccc(C)cc1)n1c(=N)n(Cc2ccc(C)cc2)c2ccccc21	Orexin receptor type 2 (Homo sapiens)	EC50	=	3.63
Cc1ccc(C[C@@H](CNC(=O)c2cccc(C)n2)n2c(=N)n(Cc3ccc(C)cc3)c3ccccc32)cc1	Orexin receptor type 2 (Homo sapiens)	EC50	>	10
Cc1ccc(CC(CNC(=O)N(C)C)n2c(=N)n(Cc3ccc(C)cc3)c3ccccc32)cc1 (racemic)	Orexin receptor type 2 (Homo sapiens)	EC50	=	4.17

====

# Protocol summary: Tmax in mouse brain at 5 mg/kg,iv administration
# Assay type: ADME, organism-based
Measured attribute: Tmax (min)

Molecule	Measured attribute	Unit symbol	Numeric value
COCOC[C@H](Cc1ccc(C)cc1)n1c(=N)n(C(C)c2ccc(C)cc2)c2cccnc21 (stereo in doubt; 62c)	Tmax	min	10
Cc1ccc(C[C@@H](CNC(=O)CO)n2c(=N)n(C(C)c3ccc(C)cc3)c3ccccc32)cc1 (stereo in doubt; 65c)	Tmax	min	30
COC[C@H](Cc1ccc(C)cc1)n1c(=N)n(C(c2ccc(C)cc2)C2CC2)c2ccccc21 (stereo in doubt; 61b)	Tmax	min	30
Cc1ccc(C[C@@H](C(=O)N2CC(C#N)C2)n2c(=N)n(C(C)c3ccc(C)cc3)c3cccnc32)cc1 (stereo not given in full)	Tmax	min	10
Cc1ccc(C[C@@H](C(=O)N2CC(C#N)C2)n2c(=N)n(C(C)c3ccc(C)cc3)c3ccccc32)cc1 (mixture of isomers)	Tmax	min	10

====

# Protocol summary: Half life in mouse plasma at 5 mg/kg,iv administration
# Type: ADME, organism-based
Criterion: half-life strictly less than 3 h. Met: Y. Not met: N.

Compound	Label
COCOC[C@H](Cc1ccc(C)cc1)n1c(=N)n(C(C)c2ccc(C)cc2)c2cccnc21 (stereo in doubt; 62c)	Y
Cc1ccc(C[C@@H](CNC(=O)CO)n2c(=N)n(C(C)c3ccc(C)cc3)c3ccccc32)cc1 (stereo in doubt; 65c)	N
Cc1ccc(C[C@@H](C(=O)N2CC(C#N)C2)n2c(=N)n(C(C)c3ccc(C)cc3)c3cccnc32)cc1 (stereo not given in full)	Y
COC[C@H](Cc1ccc(C)cc1)n1c(=N)n(C(c2ccc(C)cc2)C2CC2)c2ccccc21 (stereo in doubt; 61b)	Y

====

# Protocol summary: Ratio of Cmax in mouse brain to plasma at 5 mg/kg,iv administration
# Assay type: ADME, organism-based

Molecule	Kp
COC[C@H](Cc1ccc(C)cc1)n1c(=N)n(C(c2ccc(C)cc2)C2CC2)c2ccccc21 (stereo in doubt; 61b)	0.17
Cc1ccc(C[C@@H](CNC(=O)CO)n2c(=N)n(C(C)c3ccc(C)cc3)c3ccccc32)cc1 (stereo in doubt; 65c)	0.026
Cc1ccc(C[C@@H](C(=O)N2CC(C#N)C2)n2c(=N)n(C(C)c3ccc(C)cc3)c3ccccc32)cc1 (mixture of isomers)	0.24
COCOC[C@H](Cc1ccc(C)cc1)n1c(=N)n(C(C)c2ccc(C)cc2)c2cccnc21 (stereo in doubt; 62c)	3.32

====

# Assay target: Orexin receptor type 2 (Homo sapiens, UniProt O43614)
# Sequence (O43614 whole entry): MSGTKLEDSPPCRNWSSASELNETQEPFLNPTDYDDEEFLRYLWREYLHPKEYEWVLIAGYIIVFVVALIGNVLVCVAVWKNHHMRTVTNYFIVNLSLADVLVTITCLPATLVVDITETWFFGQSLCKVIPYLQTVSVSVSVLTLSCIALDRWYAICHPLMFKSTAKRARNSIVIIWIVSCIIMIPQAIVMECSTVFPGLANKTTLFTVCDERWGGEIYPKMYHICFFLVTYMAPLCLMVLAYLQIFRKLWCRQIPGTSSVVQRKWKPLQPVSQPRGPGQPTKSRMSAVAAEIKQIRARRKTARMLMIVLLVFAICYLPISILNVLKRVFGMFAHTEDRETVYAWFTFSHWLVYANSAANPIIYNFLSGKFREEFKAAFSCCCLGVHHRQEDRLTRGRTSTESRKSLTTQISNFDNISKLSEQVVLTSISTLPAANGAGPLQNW
# Protocol summary: Agonist activity at human OX2R expressed in human HEK293 cells co-transfected with human Galphaq assessed as accumulation of inositol phosphate by scintillation counter analysis
pEC50: −log10 of the molar value.
pEC50 overview

Molecule	Value relation sign	pEC50
COC(=O)NCC(Cc1ccc(C)cc1)n1c(=N)n(Cc2ccc(C)cc2)c2ccccc21 (racemic)	=	5.73
COCCOC[C@H](Cc1ccc(C)cc1)n1c(=N)n(C(C)c2ccc(C)cc2)c2cccnc21 (stereo in doubt; 63b)	=	5.33
Cc1ccc(C[C@@H](CO)n2c(=N)n(Cc3ccc(C)cc3)c3ccc(C)cc32)cc1	<	5.00
CCC(=O)NCC(Cc1ccc(C)cc1)n1c(=N)n(Cc2ccc(C)cc2)c2ccccc21 (racemic)	=	5.09
Cc1ccc(CC(CNC(=O)c2ccccc2)n2c(=N)n(Cc3ccc(C)cc3)c3ccccc32)cc1 (racemic)	<	5.00
Cc1ccc(C[C@@H](CSC(C)C)n2c(=N)n(Cc3ccc(C)cc3)c3ccccc32)cc1	=	5.27
COC[C@H](Cc1ccc(C)cc1)n1c(=N)n(C(c2ccc(C)cc2)C2CC2)c2ccccc21 (stereo in doubt; 61c)	=	5.71
Cc1ccc(C[C@@H](CNC(=O)CO)n2c(=N)n(C(C)c3ccc(C)cc3)c3cccnc32)cc1 (stereo in doubt; 68c)	=	5.88
Cc1ccc(C[C@@H](COCCC#N)n2c(=N)n(C(C)c3ccc(C)cc3)c3cccnc32)cc1 (stereo in doubt; 69b)	=	5.25
Cc1ccc(C[C@@H](CNC(=O)CO)n2c(=N)n(C(C)c3ccc(C)cc3)c3ccccc32)cc1 (stereo in doubt; 65c)	=	6.36
CCOC(=O)NCC(Cc1ccc(C)cc1)n1c(=N)n(Cc2ccc(C)cc2)c2ccccc21 (racemic)	=	5.57
Cc1ccc(C[C@@H](CNC(=O)c2ccco2)n2c(=N)n(Cc3ccc(C)cc3)c3ccccc32)cc1	<	5.00
Cc1ccc(CC(CNS(=O)(=O)C(F)(F)F)n2c(=N)n(Cc3ccc(C)cc3)c3ccccc32)cc1 (racemic)	<	5.00
Cc1ccc(CC(CNC(=O)CN(C)C)n2c(=N)n(Cc3ccc(C)cc3)c3ccccc32)cc1 (racemic)	=	5.48
Cc1ccc(C[C@@H](CNC(=O)c2ncccc2C)n2c(=N)n(Cc3ccc(C)cc3)c3ccccc32)cc1	<	5.00
Cc1ccc(C[C@@H](CO)n2c(=N)n(Cc3ccc(C)cc3)c3cc(Cl)ccc32)cc1	<	5.00
